Assay System: Muscarinic acetylcholine receptor M5 (Homo sapiens)
Sequence (P08912 whole entry): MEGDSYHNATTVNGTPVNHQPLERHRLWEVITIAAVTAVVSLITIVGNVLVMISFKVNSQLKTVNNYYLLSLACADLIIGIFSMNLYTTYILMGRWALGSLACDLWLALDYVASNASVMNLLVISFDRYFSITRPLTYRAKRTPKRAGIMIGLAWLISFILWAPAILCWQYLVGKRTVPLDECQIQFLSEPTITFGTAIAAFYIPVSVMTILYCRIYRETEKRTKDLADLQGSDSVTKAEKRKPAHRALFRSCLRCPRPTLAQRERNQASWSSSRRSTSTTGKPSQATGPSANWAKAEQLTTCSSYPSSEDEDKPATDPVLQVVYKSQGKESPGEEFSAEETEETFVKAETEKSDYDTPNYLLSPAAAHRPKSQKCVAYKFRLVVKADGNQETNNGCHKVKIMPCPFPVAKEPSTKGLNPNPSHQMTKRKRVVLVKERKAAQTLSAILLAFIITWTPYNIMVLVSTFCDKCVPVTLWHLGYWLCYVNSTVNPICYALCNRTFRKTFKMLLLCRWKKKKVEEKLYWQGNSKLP
pKi: −log10 of the molar value.
Measured Endpoint: pKi

1. Fc1cccc(CCN[C@H]2C3C4CC5C6C4CC3C6C52)c1 (stereo partly specified) = 5.74

----------
Ki listing for selected compounds.
Assay System: Sodium-dependent dopamine transporter (Homo sapiens, UniProt Q01959)
Sequence (Q01959 whole entry): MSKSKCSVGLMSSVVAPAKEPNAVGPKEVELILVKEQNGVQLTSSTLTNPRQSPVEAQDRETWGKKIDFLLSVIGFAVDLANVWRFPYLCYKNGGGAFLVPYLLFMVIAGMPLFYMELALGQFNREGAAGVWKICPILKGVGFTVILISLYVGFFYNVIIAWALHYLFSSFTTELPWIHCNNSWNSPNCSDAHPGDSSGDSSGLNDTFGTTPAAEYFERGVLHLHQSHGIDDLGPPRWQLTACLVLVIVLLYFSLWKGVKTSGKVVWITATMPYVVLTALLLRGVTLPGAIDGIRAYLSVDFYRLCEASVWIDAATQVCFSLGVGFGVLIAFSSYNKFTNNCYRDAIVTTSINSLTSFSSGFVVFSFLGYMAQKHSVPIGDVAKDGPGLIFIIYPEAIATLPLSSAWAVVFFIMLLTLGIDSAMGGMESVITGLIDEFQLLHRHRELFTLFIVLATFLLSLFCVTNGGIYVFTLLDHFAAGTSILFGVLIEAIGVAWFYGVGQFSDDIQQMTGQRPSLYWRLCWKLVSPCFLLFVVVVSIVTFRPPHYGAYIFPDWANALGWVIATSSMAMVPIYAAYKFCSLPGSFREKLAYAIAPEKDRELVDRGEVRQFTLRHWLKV
Procedure Details: Inhibition of DAT
Measured Endpoint: Ki (nM)

1. CN(C)C[C@H]1C2CCC(CC2)[C@H]1c1ccc(Cl)c(Cl)c1 = 7.2
2. CCCCC1=C(c2ccc(Cl)cc2)C2CCN1CC2 = 14
3. COC(=O)[C@H]1[C@@H](c2ccc(C)cc2)C[C@H]2CC[C@@H]1N2C/C=C/I = 17
4. NCCN1[C@@H]2CC[C@H]1C[C@@H](NC(c1ccc(F)cc1)c1ccc(F)cc1)C2 = 12.5

The measurements presented in this section are drawn from ChEMBL document CHEMBL1641373.
